All values here come from patent US6124293A.

Kindly state IC50 (Et 743)/IC50 for each of the entries shown.
System: L1210 murine leukemia
Test: in vitro cytotoxicity to L1210 murine leukemia
Assay type: cell-based
Details: potency relative to Et 743
Give bare numbers.

COc1cc2c(cc1O)CCN(C)[C@]21CSC2c3c(OC(C)=O)c(C)c4c(c3C(COC1=O)N1C2C2NC(Cc3cc(C)c(OC)c(O)c32)[C@@H]1O)OCO4 (some centres unmarked) [Iso-Et 743] ... 17

Given the molecule COc1cc2c(cc1O)CCNC21CSC2c3c(OC(C)=O)c(C)c4c(c3C(COC1=O)N1C(O)C3Cc5cc(C)c(OC)c(O)c5C(C21)N3Cc1ccc(CN2C3Cc5cc(C)c(OC)c(O)c5C2C2C5SCC6(NCCc7cc(O)c(OC)cc76)C(=O)OCC(c6c7c(c(C)c(OC(C)=O)c65)OCO7)N2C3O)cc1)OCO4 (centres unmarked) [Et 1560] , what is its reported IC50 (Et 743)/IC50?
0.25
